molecular target: Calcium-dependent protein kinase 4 (Plasmodium falciparum (isolate 3D7)) (UniProt Q8IBS5); assay: PfCDPK4 kinase inhibitors, biochemical, TCAMS library (AID 1159588); settings: recombinant PfCDPK4, Kinase-Glo ATP depletion luminescence
Sequence (Q8IBS5 whole entry, looked up): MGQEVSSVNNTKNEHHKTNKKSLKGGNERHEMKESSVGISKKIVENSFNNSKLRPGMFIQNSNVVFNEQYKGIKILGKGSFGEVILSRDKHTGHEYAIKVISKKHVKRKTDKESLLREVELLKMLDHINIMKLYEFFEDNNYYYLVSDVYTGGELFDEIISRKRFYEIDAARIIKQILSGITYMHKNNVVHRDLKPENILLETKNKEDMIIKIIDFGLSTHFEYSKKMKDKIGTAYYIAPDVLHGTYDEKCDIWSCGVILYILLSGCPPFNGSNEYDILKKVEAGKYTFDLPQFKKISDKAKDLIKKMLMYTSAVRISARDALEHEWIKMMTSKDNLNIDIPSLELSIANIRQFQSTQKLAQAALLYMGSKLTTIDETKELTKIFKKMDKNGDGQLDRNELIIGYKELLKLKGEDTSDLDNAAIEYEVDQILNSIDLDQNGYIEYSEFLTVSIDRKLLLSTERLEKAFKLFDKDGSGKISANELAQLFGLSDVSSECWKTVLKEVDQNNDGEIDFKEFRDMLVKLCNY
Measured potencies and affinities stand elsewhere. Activity calls are given as the source filed them. The limit is not given here; nearly all actives have IC50 up to about 0.91 µM.
experimental.endpoint: outcome

# count of solved cases: 6
[[record]]
compound = "Cc1[nH]c(C)c(-c2ccc(OCCCCSc3ccncc3)cc2)c(=O)c1Br"
experimental_endpoint = "outcome"
value_observed = "inactive"

[[record]]
compound = "CCNc1cc(C(=O)N[C@@H](Cc2ccccc2)[C@H](O)CN[C@@H]2CCc3ccccc32)cc(N2CCCCS2(=O)=O)c1"
experimental_endpoint = "outcome"
value_observed = "inactive"

[[record]]
compound = "Cc1nc2ccc3ccc(CNc4ccc(C(=O)N[C@@H](CCC(=O)O)C(=O)N[C@@H](Cc5cccs5)C(=O)O)c(F)c4)cc3c2c(=O)[nH]1"
experimental_endpoint = "outcome"
value_observed = "inactive"

[[record]]
compound = "COc1ccc(CNc2ccc3nc(N)nc(N)c3c2)cc1"
experimental_endpoint = "outcome"
value_observed = "inactive"

[[record]]
compound = "O=C(NCc1ccc(F)cc1)Nc1ccc(-c2ccc(-c3nc4ccccc4[nH]3)cc2)cc1"
experimental_endpoint = "outcome"
value_observed = "inactive"

[[record]]
compound = "O=C(NC1CCCCC1)C(c1cccs1)N(CCc1ccccc1)C(=O)c1ccco1 (stereo unspecified)"
experimental_endpoint = "outcome"
value_observed = "inactive"


Lab entry: Calcium-dependent protein kinase 4 (Plasmodium falciparum (isolate 3D7)) (UniProt Q8IBS5) assay, compound Cc1cc(NCC(c2ccccc2)c2ccccc2)nc(NCC2CCCCC2)n1 , outcome = inactive

---

assay: HepG2 cytotoxicity, primary screen, cytotoxicity control for P. falciparum antimalarial project, cell-based, ATP luminescence (AID 2303); conditions: HepG2 viability, 24-48 h, at 10 µM;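 also: 0% = DMSO wells and 100% = digitonin-killed cells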
Active and inactive are the calls of the source.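 Rule for the calls: active = inhibition above 50%; inactive = the rest.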
Return exactly one item of active, inactive

Solved entries:
[[record]]
molecule = "O=C(NCc1ccc(F)cc1)Nc1ccc(-c2ccc(-c3nc4ccccc4[nH]3)cc2)cc1"
category = "inactive"

[[record]]
molecule = "COc1ccc(NC(=O)Nc2cccc(-c3cccc(-c4nc5ccccc5[nH]4)c3)c2)cc1"
category = "inactive"


Dear colleague, could you share the recorded outcome for CCNS(=O)(=O)c1ccc(Oc2ccc([N+](=O)[O-])cc2)cc1 when you have a moment?
inactive

Short answer needed: outcome of this test for Cn1ccnc1CNC(=O)c1ccc(-c2cccc(-c3nc4ccc(C(F)(F)F)cc4[nH]3)c2)cc1 ?
inactive

Look up the recorded call for COc1cc(Cl)c(C)cc1-n1cc(C(=O)c2cc(Br)ccc2O)cc(C#N)c1=O in this test.
inactive

For C#CCNCc1ccc(-c2ccc(-c3nc4ccc(C(F)(F)F)cc4[nH]3)s2)cc1 , which call appears in the assay record?
inactive

Each molecule tested received a call. Report the one for CCOc1ccc(-n2nc3c(Cl)nnc(-c4ccccc4)c3c2-c2ccccc2)cc1 .
inactive

Answer briefly: the call reported for COc1ccc(-c2ccc(NC(=O)c3cccc(Cl)c3)cc2)cc1CN1CCCC1 in this assay.
inactive

Recorded test outcome, item OC[C@H](Nc1nc(C(Oc2ccccc2)c2ccccc2)nc2[nH]ncc12)c1ccccc1 (stereo not given in full)
inactive

Kindly provide the recorded test outcome for the following molecule: Cc1cc(N[C@@H](Cc2ccccc2)C(=O)NCCc2ccccc2)nc(NCC2CCCCC2)n1
inactive

State the result this test recorded for Cc1[nH]c2ccccc2c1C(=O)C(C)Sc1nnc(-c2ccccc2F)o1 (stereo not given) .
inactive

Entry Cc1cccc(-c2nn(-c3ccccc3)cc2C(=O)Nc2nnc(C)o2)c1 : call = ?
inactive

Look up the recorded call for Cn1cncc1C(=O)Nc1cccc(-c2ccc(-c3nc4ccc(F)cc4[nH]3)s2)c1 in this test.
inactive

Lab log entry: COc1ccc2nc3cc(Cl)ccc3c(NCCN3CCN(C)CC3)c2c1 — outcome as called in the assay?
inactive

Identify the outcome logged in this assay for the molecule shown: Cc1c(Cc2ccccc2Cl)cnc2nc(N)nc(N)c12
active

Assay result, entry CC(C)C[C@H](NC(=O)c1cc(-c2ccc(C(C)(C)C)cc2)no1)C(=O)O (tested in a mixture with another compound) — outcome?
inactive

Give the logged outcome of this assay for the following molecule: COc1ccc2nccc([C@@H](O)CN3CCC(NC(=O)C(c4ccsc4)N4CCN(c5ccccc5)CC4)CC3)c2c1 (stereo not given in full)
inactive

Write down the call the test reported for this molecule. Item: COCCNCC(O)Cn1c2ccc(Cl)cc2c2cc(Cl)ccc21 (stereo not given)
inactive

Hi, do you know how CCN1CCN(Cc2ccc3nc(-c4cc(C)n(Cc5cc(Cl)ccc5OCc5ccccc5)n4)[nH]c3c2)CC1 came out in this test?
inactive

Recorded test outcome, item CCCCN=C(N)Nc1ccc(OCCCOc2ccc(NC(N)=NCCCC)cc2)cc1
inactive

---

experiment: HepG2 cytotoxicity, primary screen, cytotoxicity control for P. falciparum antimalarial project, cell-based, ATP luminescence (AID 2303); details: HepG2 viability, 24-48 h, at 10 µM, active compounds read high;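 also: 0% = DMSO wells and 100% = digitonin-killed cells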
Measured inhibition accompanies every entry in the list below.
# output: bare number, implied unit %

Use these answered entries as a reference point.
[[record]]
molecule = "CC1CCC(NC(=O)c2nn(-c3ccc(Cl)cc3)c(=O)c3ccccc23)CC1 (centres undefined)"
unit_text = "%"
value_observed = 3

[[record]]
molecule = "O=C(Nc1cccc(N2CCC(NCc3cnn(-c4cccc(F)c4)c3)CC2)c1)c1ccncc1"
unit_text = "%"
value_observed = 50

[[record]]
molecule = "COc1ccc(C(=O)NCc2ccc(N)nc2C)cc1Nc1ncc(-c2cccc(N(C)C)c2)cn1"
unit_text = "%"
value_observed = 9

[[record]]
molecule = "COc1ccc(CCN(C)CCOc2ccc(NC(=O)c3ccc([N+](=O)[O-])c4c(=O)c5ccccc5[nH]c34)cc2)cc1OC"
unit_text = "%"
value_observed = 38

[[record]]
molecule = "Cc1ccnc(NC(=O)c2cc(-c3cccc([N+](=O)[O-])c3)nc3onc(C)c23)c1"
unit_text = "%"
value_observed = 5

[[record]]
molecule = "CCCCCN1CCCC1CNS(=O)(=O)c1cccc(C(=O)Nc2cccc(C#N)c2)c1 (centres undefined)"
unit_text = "%"
value_observed = 19


The molecule CCOC(=O)c1[nH]c(-c2ccccc2)nc1-n1nc(C)cc1C showed inhibition equal to 7

The reported value for O=C1COc2ccccc2N1C/C=C(\CN1CCC(c2ccccc2)CC1)c1cc(Cl)cc(Cl)c1 in terms of inhibition is 14

For NC(N)=NN=Cc1ccc2c(ccc3ccccc32)c1 the molecule record lists inhibition as 9

Sure, the documented inhibition for O=C1Nc2cccc3c2C1(CCCCN1CCC(c2c(-c4ccc(F)cc4)[nH]c4ccccc24)CC1)CCC3 (centres undefined) is 25

Reported inhibition ( Cc1ccc(C(=O)c2oc3ccc4c(C)cc(=O)oc4c3c2C)cc1 ) = -8

Recorded result, CN1CCN(c2ccnc3ccc(NC(=O)Nc4cccc5ccccc45)cc23)CC1 , inhibition: -3

The measured inhibition associated with COc1ccc(CCNCCCCCCNCCc2cccc([N+](=O)[O-])c2)cc1OC reads 13

Sample O=C(/C=C/c1ccc(Cl)c(Cl)c1)NCCCCCN1CCC(NC(=O)Nc2ccc(Cl)cc2Cl)CC1 ; inhibition observed: 96

---

Below, each entry is listed alongside its reported growth inhibition.
assay: inhibition of 3D7 malaria parasite growth – strain 3D7 (AID 2306);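 also: 0% = DMSO wells and 100% = chloroquine plus artemisinin control wells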; conditions: P. falciparum 3D7 erythrocytic growth, LDH absorbance, 72 h; at 2 µM; active compounds read high
# value in %; strip the unit string

[[record]]
compound = "CN1CCC(N(C)C(=O)C=Cc2cn(-c3ccccc3)nc2-c2cc3ccccc3o2)CC1"
experimental_endpoint = "growth inhibition"
unit_text = "%"
value_observed = 92

[[record]]
compound = "CCn1c(Sc2ccc(C#N)c([N+](=O)[O-])c2)nnc1-c1cc(OC)cc(OC)c1"
experimental_endpoint = "growth inhibition"
unit_text = "%"
value_observed = 93

[[record]]
compound = "Cc1c(CNCCCNc2nc3ccccc3[nH]2)[nH]c2cc(Cl)cc(Cl)c12"
experimental_endpoint = "growth inhibition"
unit_text = "%"
value_observed = 101

[[record]]
compound = "COc1cc(-c2cnc(N)c(-c3nc4ccccc4[nH]3)c2)cc(OC)c1OC"
experimental_endpoint = "growth inhibition"
unit_text = "%"
value_observed = 101

[[record]]
compound = "C=CCN1CCC(N(Cc2cccc(Oc3ccccc3)c2)C(=O)C(c2ccccc2)c2ccccc2)CC1"
experimental_endpoint = "growth inhibition"
unit_text = "%"
value_observed = 87


Input CCOc1cc(O)c(-c2nc(N)ncc2-c2ccc3c(c2)OCCO3)cc1CC . Output growth inhibition: 99

get_value(item= CCN(CC)CCNc1ccnc2c3ccccc3n(C)c12 , readout=growth inhibition) returns 101

// sample COc1ccc(CNC2Cc3ccccc3C2)cc1-c1ccc(S(=O)(=O)NCCc2ccccn2)s1 , its growth inhibition was 92

The measured growth inhibition associated with CCN(CC)CCNc1ccnc2ccc3ccccc3c12 reads 100

The measured growth inhibition associated with O=C(N[C@@H](Cc1cc(F)cc(F)c1)[C@H](O)CNCc1cccc(C(F)(F)F)c1)c1cc(C2CCCC2)cc(N2CCCC2=O)c1 reads 95

Entry COc1ccc(NC(=O)/C=C/c2ccccc2Cl)cc1OCCN1CCC(c2nc3ccccc3[nH]2)CC1 — recorded growth inhibition = 92

The compound listed as CC(C)(C)c1nn(-c2ccccc2)c2[nH]c(=O)c(CNCc3ccccc3)cc12 has a reported growth inhibition of 90

Per the record, O=C(Nc1ccnc2ccccc12)NC1CCN(CCc2ccccc2)CC1 has growth inhibition of 100

The reported value for CCCCCN1CCCN(Cc2cccc(NC(=O)c3ccc(Cl)c(Cl)c3)c2)CC1 in terms of growth inhibition is 89

Entry Cc1ccc(Oc2ncccc2C(=O)Nc2cccc3cccnc23)c(C)c1 , growth inhibition reported as 99

Entry O=C(Cc1ccc(Cl)cc1)Nc1cc(Cl)ccc1Cn1cnc(N2CCNCC2)cc1=O , growth inhibition reported as 97

get_value(item= Cc1ccccc1CNc1nccc(NCCC(=O)Nc2ccccc2)n1 , readout=growth inhibition) returns 90

Reported growth inhibition of CC(=O)N(C)c1cccc(C(=O)Nc2cccc(-c3cccc(-c4nc5ccc(C(F)(F)F)cc5[nH]4)c3)c2)c1 : 97

Value of growth inhibition reported for the compound O=C1CCCC1Sc1nc2ccccc2c(=O)n1-c1ccc(Cl)c(Cl)c1 (stereo not given) is 97

Memo: Cc1ccccc1N1CCN(c2ncc(C(=O)NC3CC3)cc2Cl)CC1 , reported growth inhibition: 91

Summary for this compound, Cc1cccc(-c2nn(-c3ccccc3)c3[nH]c(=O)c(CN4CCSCC4)cc23)c1 : growth inhibition is 98

growth inhibition measured on COc1ccc(NS(=O)(=O)c2ccc(C(=O)Nc3ccc(OC(F)(F)F)cc3)cc2)cc1N1CCN(CC2CC2)CC1 = 89

According to the records, this compound CN(CCCCNC(=O)/C=C/c1ccccc1)C1CC2(CCN(C(=O)OC(C)(C)C)CC2)c2ccccc21 (stereo not given) displays growth inhibition of 87

Form field growth inhibition, entry O=C(Nc1ccc(SC(F)(F)F)cc1)Nc1ccc(Cl)c(Cl)c1 : 98

Briefly, growth inhibition measured for Cc1[nH]c(C)c([N+](=O)[O-])c(=O)c1-c1ccc(Oc2ccc(OC(F)(F)F)cc2)cc1 : 97

Query CCNc1cc(C(=O)N[C@@H](Cc2ccccc2)[C@H](O)CNC(C)C)cc(N2CC(c3ccccc3)CCS2(=O)=O)c1 (stereo not given in full) yields growth inhibition of 98
